run_description: Stability of analytes in rat plasma (QC samples under four storage conditions)
Format: in vitro ADME
experimental_context: spiked concentration 200 ng/mL, n = 6
Protocol: To study the stability of all compounds in rat plasma, low, medium, and high concentrations of QC samples were tested under the following test conditions: stored at an autosampler for 12 hours, stored at room temperature for 6 hours, put through three freeze/thaw cycles, and stored at -80°C for 14 days. […] The stability of all 13 analytes during sample collection and processing was evaluated with the various storage conditions being tested on spiked plasma samples at three QC concentrations.
observable: Measured concentration, Autosampler for 12 h (ng/mL)

1. O=c1cc(-c2ccc(O)c(O)c2)oc2cc(O)cc(O)c12 : 181.7
2. O=c1cc(-c2ccc(O)c(O)c2)oc2cc(O[C@@H]3O[C@H](CO)[C@@H](O)[C@H](O)[C@H]3O)cc(O)c12 [Cynaroside] : 203.4
3. COc1ccc(-c2cc(=O)c3c(O)cc(O[C@@H]4O[C@H](CO)[C@@H](O)[C@H](O)[C@H]4O)cc3o2)cc1 : 179.0
4. COc1ccc([C@@H]2CC(=O)c3c(O)cc(O[C@@H]4O[C@H](CO[C@@H]5O[C@@H](C)[C@H](O)[C@@H](O)[C@H]5O)[C@@H](O)[C@H](O)[C@H]4O)cc3O2)cc1O : 222.7

Data origin, for the record: paper PMC7456477
